Entries below carry reported pIC50 on UniProt P00918.
Give bare numbers, as −log10 of the molar value.

COMPOUND: C[C@]12CCC(NC(=S)Nc3ccc(S(N)(=O)=O)cc3)CC1=CC[C@@H]1[C@@H]2CC[C@]2(C)C(C(=O)CNc3c4c(cc5ccccc35)CCCC4)CC[C@@H]12 (stereo partly drawn)
MEASUREMENT_TARGET: UniProt P00918
EXPERIMENTAL_READOUT: pIC50
OBSERVED_RESULT: 4.50
--
COMPOUND: C[C@]12CCC(NC(=S)Nc3ccc(S(N)(=O)=O)cc3)CC1=CC[C@@H]1[C@@H]2CC[C@]2(C)C(C(=O)CN3c4ccccc4Sc4ccccc43)CC[C@@H]12 (stereo partly drawn)
MEASUREMENT_TARGET: UniProt P00918
EXPERIMENTAL_READOUT: pIC50
OBSERVED_RESULT: 5.29
--
COMPOUND: CC(=O)C1CC[C@H]2[C@@H]3CC=C4CC(N)CC[C@]4(C)[C@H]3CC[C@]12C (stereo partly drawn)
MEASUREMENT_TARGET: UniProt P00918
EXPERIMENTAL_READOUT: pIC50
OBSERVED_RESULT: 4.14
--
COMPOUND: CC(=O)C1CC[C@H]2[C@@H]3CC=C4CC(NC(=S)Nc5ccc(S(N)(=O)=O)cc5)CC[C@]4(C)[C@H]3CC[C@]12C (stereo partly drawn)
MEASUREMENT_TARGET: UniProt P00918
EXPERIMENTAL_READOUT: pIC50
OBSERVED_RESULT: 4.31
--
COMPOUND: C[C@]12CCC(NC(=S)Nc3ccc(S(N)(=O)=O)cc3)CC1=CC[C@@H]1[C@@H]2CC[C@]2(C)C(C(=O)CNCc3ccccc3)CC[C@@H]12 (stereo partly drawn)
MEASUREMENT_TARGET: UniProt P00918
EXPERIMENTAL_READOUT: pIC50
OBSERVED_RESULT: 5.99

Exam item: Look up and state reported pIC50 for C[C@]12CCC(NC(=S)Nc3ccc(S(N)(=O)=O)cc3)CC1=CC[C@@H]1[C@@H]2CC[C@]2(C)C(C(=O)CNCCc3ccccc3)CC[C@@H]12 (stereo partly drawn)
Marked response: 5.26
